Origin of values: ChEMBL document CHEMBL3988442

testedSystem: Sialic acid-binding Ig-like lectin 9 (Homo sapiens)
experimentDescription: Hs-Siglec9 ALPHAscreen SOP 20170721
Design: scale not given: direction of the effect not stated beside the values
experimentalSetup: 10 µM
readout: Percent Effect

// known answers, use as guide
[[record]]
compound = "CNC(=O)c1cccc(NC(=O)Cn2nc(-c3cccs3)oc2=O)c1"
testedsystem = "Sialic acid-binding Ig-like lectin 9 (Homo sapiens)"
readout = "Percent Effect"
endpointvalue = "18.8%"

[[record]]
compound = "Cc1occc1C(=O)N1CCC2(CC1)NC(=O)CC2c1cnn(C)c1 (stereo unspecified)"
testedsystem = "Sialic acid-binding Ig-like lectin 9 (Homo sapiens)"
readout = "Percent Effect"
endpointvalue = "-1.75%"

[[record]]
compound = "COc1cc(N2C[C@@H]3COC[C@]3(COCc3cccc(C)n3)C2)ncn1"
testedsystem = "Sialic acid-binding Ig-like lectin 9 (Homo sapiens)"
readout = "Percent Effect"
endpointvalue = "5.38%"


Attention now turns to another entry.
Return Percent Effect (reported value) for this compound: COc1cccc(CCNC(=O)CN2CCCC2c2noc(C)n2)c1 (stereo unspecified)
-0.359%

---

Below, each entry is listed alongside its reported Percent Effect.
Species: Homo sapiens
experimentDescription: To identify inhibition of the IFN signalling (Jak-Stat) pathway via expression of an eGFP reporter gene under the control of an IFN-stimulated response element (ISRE) containing MxA promoter.
Assay type: functional
Design: scale not given: direction of the effect not stated beside the values
experimentalSetup: 30 µM
Number in %, nothing else.

Return Percent Effect (reported value) for this compound: Cn1cnnc1S(=O)(=O)C1CCN(S(=O)(=O)c2c(Cl)cccc2Cl)CC1
6.49

Return Percent Effect (reported value) for this compound: CC(=O)c1cccc(OCCCC(=O)N(C)CCc2ccncc2)c1
16.1

Return Percent Effect (reported value) for this compound: Cc1cc(N2CCCCCC2)n2nc(C)c(C)c2n1
3.63

Return Percent Effect (reported value) for this compound: O=C(NC[C@H]1OC[C@@H]2CCN(C(=O)c3ccco3)C[C@@H]21)C1CC1
-3.1

Return Percent Effect (reported value) for this compound: COCCOCC(=O)Nc1ccc(Br)cc1F
9.23

Return Percent Effect (reported value) for this compound: O=S(=O)(NCC1CCN(c2cnccn2)CC1)c1c(F)cccc1F
8.19

---

testedSystem: Chromo domain-containing protein 1 (Saccharomyces cerevisiae (strain ATCC 204508 / S288c) (Baker's yeast)) (UniProt P32657)
Sequence (P32657 whole entry, the tested form may be a part): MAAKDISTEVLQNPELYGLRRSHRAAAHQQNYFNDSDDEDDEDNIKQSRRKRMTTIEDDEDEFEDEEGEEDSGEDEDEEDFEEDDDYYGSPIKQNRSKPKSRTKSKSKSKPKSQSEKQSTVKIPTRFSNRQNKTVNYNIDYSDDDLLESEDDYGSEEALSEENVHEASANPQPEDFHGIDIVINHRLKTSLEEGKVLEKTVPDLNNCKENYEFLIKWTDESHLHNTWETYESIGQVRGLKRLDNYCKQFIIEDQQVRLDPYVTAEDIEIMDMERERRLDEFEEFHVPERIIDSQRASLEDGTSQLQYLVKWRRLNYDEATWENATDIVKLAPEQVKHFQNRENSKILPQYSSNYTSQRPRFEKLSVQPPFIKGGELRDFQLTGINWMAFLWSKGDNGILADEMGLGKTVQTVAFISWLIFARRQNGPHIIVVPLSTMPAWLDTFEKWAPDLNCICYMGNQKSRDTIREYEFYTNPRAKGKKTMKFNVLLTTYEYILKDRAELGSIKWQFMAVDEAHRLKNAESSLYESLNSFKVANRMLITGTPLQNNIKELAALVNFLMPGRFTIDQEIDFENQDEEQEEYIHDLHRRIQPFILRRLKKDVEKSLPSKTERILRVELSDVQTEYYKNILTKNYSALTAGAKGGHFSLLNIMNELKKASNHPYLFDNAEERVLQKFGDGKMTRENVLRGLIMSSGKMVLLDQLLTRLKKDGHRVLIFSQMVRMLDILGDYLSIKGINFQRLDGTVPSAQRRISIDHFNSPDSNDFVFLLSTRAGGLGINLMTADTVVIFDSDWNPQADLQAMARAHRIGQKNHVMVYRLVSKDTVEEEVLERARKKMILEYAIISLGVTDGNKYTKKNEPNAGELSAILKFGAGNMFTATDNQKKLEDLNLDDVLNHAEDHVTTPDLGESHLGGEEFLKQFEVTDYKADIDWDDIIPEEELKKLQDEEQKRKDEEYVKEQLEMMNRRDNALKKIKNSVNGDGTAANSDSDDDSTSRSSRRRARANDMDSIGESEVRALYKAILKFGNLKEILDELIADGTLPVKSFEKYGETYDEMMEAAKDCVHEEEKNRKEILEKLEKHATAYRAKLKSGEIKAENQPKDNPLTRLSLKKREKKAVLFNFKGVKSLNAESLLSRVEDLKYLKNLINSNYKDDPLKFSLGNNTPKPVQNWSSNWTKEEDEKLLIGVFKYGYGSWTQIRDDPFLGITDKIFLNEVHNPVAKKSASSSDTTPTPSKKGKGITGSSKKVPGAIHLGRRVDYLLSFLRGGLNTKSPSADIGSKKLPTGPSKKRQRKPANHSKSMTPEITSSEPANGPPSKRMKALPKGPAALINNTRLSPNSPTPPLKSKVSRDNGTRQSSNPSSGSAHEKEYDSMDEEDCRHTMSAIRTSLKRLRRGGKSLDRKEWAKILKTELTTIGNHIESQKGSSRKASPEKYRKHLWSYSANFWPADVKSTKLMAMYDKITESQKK
experimentDescription: ScCHD-1 Enzyme Inhibition Assay; also: in the data most compounds retested in dose-response had high values
Assay type: functional
Set-up: scale not given: direction of the effect not stated beside the values
experimentalSetup: 30 µM
readout: Percent Effect (%)
Number in %, nothing else.

// known answers, use as guide
[[record]]
molecule = "CC(=O)c1cccc(OCCCC(=O)N(C)Cc2ccccn2)c1"
endpointvalue = -9.86

[[record]]
molecule = "Cc1cnc2n(c1=O)C(CC(=O)NCc1cc(-c3cccs3)on1)CS2 (stereo unspecified)"
endpointvalue = -11

[[record]]
molecule = "COc1ccccc1[C@@H]1CN(Cc2cc(C(C)(C)C)[nH]n2)C[C@H]1C(=O)O"
endpointvalue = -3.34

[[record]]
molecule = "CNC(=O)CCc1cc(C)nc(C2CCCN2)c1 (stereo unspecified)"
endpointvalue = -23.7

[[record]]
molecule = "CC(C)N(C)S(=O)(=O)N(C)Cc1ccc2c(c1)OCO2"
endpointvalue = -8.74

[[record]]
molecule = "O=C(O)c1cc2c(nc1O)CC(c1cccs1)CC2=O (stereo unspecified)"
endpointvalue = -9.66


Return Percent Effect (reported value) for this molecule: CCc1c(C(=O)NC2CCS(=O)(=O)C2)cnn1-c1ccc(F)cc1 (stereo unspecified)
-5.38

Return Percent Effect (reported value) for this molecule: CCc1ccc(-n2c(=O)[nH]c3nc(N4CCSCC4)ncc3c2=O)cc1
45.8

Return Percent Effect (reported value) for this molecule: O=C([C@@H]1CCO[C@@H]2CCN(Cc3cccnc3)C[C@H]21)N1CCCCO1
-7.97

Return Percent Effect (reported value) for this molecule: CCC(C)[C@H](NC(=O)c1cc(Br)ccc1-n1cnnn1)C(=O)OC (stereo partly specified)
0.0287

Return Percent Effect (reported value) for this molecule: Fc1cnc(N2CCCC3(CN(Cc4ccncc4)CCO3)C2)nc1 (stereo unspecified)
-5.31

---

testedSystem: Chromo domain-containing protein 1 (Saccharomyces cerevisiae (strain ATCC 204508 / S288c) (Baker's yeast)) (UniProt P32657)
experimentDescription: ScCHD-1 Enzyme Inhibition Assay; also: in the data most compounds retested in dose-response had high values
Type: functional
Design: scale not given: direction of the effect not stated beside the values
experimentalSetup: 30 µM
Below, each entry is listed alongside its reported Percent Effect.
Reply with the number and its unit after it.

// known answers, use as guide
[[record]]
compound = "CNc1cncc(C2CCCN2Cc2ccccc2OCC(=O)O)n1 (centres undefined)"
readout = "Percent Effect"
endpointvalue = "0.143%"

[[record]]
compound = "CCC(=O)N1CCN(Cc2cc(-c3ccncc3)nn2C)CC1"
readout = "Percent Effect"
endpointvalue = "-2.41%"

[[record]]
compound = "COc1cccc(C2CC(=O)Nc3nc(N4CCOCC4)sc32)c1OC (centres undefined)"
readout = "Percent Effect"
endpointvalue = "-8.79%"

[[record]]
compound = "O=C(c1cccnc1O)N(Cc1ccsc1)CC1CCCO1 (centres undefined)"
readout = "Percent Effect"
endpointvalue = "-0.939%"

[[record]]
compound = "Cc1ccc(N2CCCc3sc(C(=O)NCc4cccnc4)nc32)nn1"
readout = "Percent Effect"
endpointvalue = "-2.84%"

[[record]]
compound = "Cc1cc(C)c2nc(CN3CC[C@@H](O)C3)cc(O)c2c1"
readout = "Percent Effect"
endpointvalue = "-5.98%"


Return Percent Effect (reported value) for this compound: Cc1nccc(C(=O)N2CCCN(Cc3cnn(C(C)C)c3)CC2)n1
6.2%

Return Percent Effect (reported value) for this compound: O=C1CCCN1CC1CN(C(=O)CC2CCCC2)Cc2nccn2C1 (centres undefined)
-9.36%

Return Percent Effect (reported value) for this compound: CC(C)(C)c1ccc(C2(C(=O)NCCS(N)(=O)=O)CC2)cc1
-4.35%

Return Percent Effect (reported value) for this compound: Cc1nc(CN2CCCN(C(=O)c3ccccn3)CC2)oc1C
-5.21%

Return Percent Effect (reported value) for this compound: Cc1ccc(C(CNCc2cnn(C(C)C)c2)N2CCOCC2)s1 (centres undefined)
-6.03%

Return Percent Effect (reported value) for this compound: O=C(c1ccnnc1)N1C[C@@H]2CC[C@H](Oc3cccc(F)c3)[C@@H]2C1
-7.63%

Return Percent Effect (reported value) for this compound: CC(Cc1ccco1)NC(=O)Nc1cnn(CC(N)=O)c1 (centres undefined)
-2.83%

Return Percent Effect (reported value) for this compound: CCc1noc(C2CCN(C(=O)CCn3nc(C)cc3C)CC2)n1
-7.88%

---

Below, each entry is listed alongside its reported Percent Effect.
testedSystem: Tyrosyl-tRNA synthetase, putative (Trypanosoma cruzi (strain CL Brener))
experimentDescription: Trypanosoma cruzi tyrosyl tRNA synthetase (TcYRS) SOP
Assay type: functional
Set-up: scale not given: direction of the effect not stated beside the values
experimentalSetup: 30 µM
Number in %, nothing else.

// known answers, use as guide
[[record]]
compound = "CC(C)(C)OC(=O)N1CCN(C(=O)c2sccc2C2CC2)CC1"
endpointvalue = 5.06

[[record]]
compound = "COc1ccc(OCc2nc(C(=O)N3CC[C@H](O)[C@@H](O)C3)co2)cc1"
endpointvalue = 12.2

[[record]]
compound = "N#Cc1cc(NC(=O)c2ccccc2)ccc1N1CCC(O)CC1"
endpointvalue = 9.76

[[record]]
compound = "COCCCNC(=O)CN1CCCC1c1c(C)nn(C)c1Cl (stereo unspecified)"
endpointvalue = -7.59

[[record]]
compound = "N#Cc1ccc(C(=O)N2CCn3c(Cn4cccn4)cnc3C2)cc1"
endpointvalue = 7.5


Attention now turns to another entry.
Return Percent Effect (reported value) for this compound: Cc1nc(C2CCN(C(=O)c3cccnc3)CC2)c2sccn12
6.49

---

Species: Homo sapiens
experimentDescription: To identify inhibition of the IFN signalling (Jak-Stat) pathway via expression of an eGFP reporter gene under the control of an IFN-stimulated response element (ISRE) containing MxA promoter.
Format: functional
Design: scale not given: direction of the effect not stated beside the values
experimentalSetup: 30 µM
Below, each entry is listed alongside its reported Percent Effect.
Number in %, nothing else.

// known answers, use as guide
[[record]]
compound = "CN(c1ccc(C(C)(C)C)cc1)S(=O)(=O)c1cc(C(=O)O)cs1"
readout = "Percent Effect"
endpointvalue = -8.15

[[record]]
compound = "NC(=O)CN1CC2(CCC1=O)CCN(Cc1cc(F)ccc1Cl)CC2"
readout = "Percent Effect"
endpointvalue = 8.19

[[record]]
compound = "O=C(c1cccnc1N1CCOCC1)N1CCCC1Cn1cccn1 (stereo unspecified)"
readout = "Percent Effect"
endpointvalue = -15.5


Return Percent Effect (reported value) for this compound: COc1ccc(CN2CCCC(Nc3cccc(F)c3)C2)cc1O (stereo unspecified)
53.9

Return Percent Effect (reported value) for this compound: O=C(c1cccnc1N1CCOCC1)N1CCCC(n2ccnc2)C1 (stereo unspecified)
0.0212

Return Percent Effect (reported value) for this compound: COc1ncccc1NC(=O)NCC(O)c1ccc(F)cc1F (stereo unspecified)
15.3
